Listed here: items and their measured inhibition.
# PROTOCOL_DESCRIPTION: inhibitors of VEEV TC-83 cytopathic effect, confirmation, Vero cells (AID 588727)
# APPLIED_CONDITIONS: VEEV TC-83 cytopathic effect inhibition, at 20 µM; hits give high values unless noted
About 450 (0.13%) of roughly 350,000 compounds were called active. Not all results are given here. Entries with a potency or affinity are not part of this list.
Could you give me the number in %? Just the number is fine.

[in] Query: inhibition; subject: CC(NC(=O)Cn1c(=O)[nH]c2ccsc2c1=O)C12CC3CC(CC(C3)C1)C2 (centres undefined)
[out] 4.05

[in] Query: inhibition; subject: COc1cccc(CN2CC(C(=O)NCCCn3ccnc3C)CCC2=O)c1 (centres undefined)
[out] 0.67

[in] Query: inhibition; subject: "Cc1ccc(S(=O)(=O)Nc2cccc3cccnc23)cc1"
[out] 5.25

[in] Query: inhibition; subject: "CCC1(CC)NC(=O)N(CC(=O)Nc2ccc(C)cc2C)C1=O"
[out] 1.89

[in] Query: inhibition; subject: "Cc1ccc(NC(=O)/C(C#N)=N/Nc2ccc(C(=O)O)cc2)c(C)c1"
[out] 1.78

[in] Query: inhibition; subject: CC12CC[C@H]3[C@@H](CCC4(O)C[C@H](O)CCC34/C=N/NC(=O)Cc3ccccc3)C1(O)CCC2C1=CC(=O)OC1 (some centres undefined)
[out] 1.62

[in] Query: inhibition; subject: CN1C(=O)C2(NCCc3c2[nH]c2ccccc32)c2ccccc21 (centres undefined)
[out] 1.48

[in] Query: inhibition; subject: C[C@]12CCC3C(CC[C@@H]4C[C@@H](O)CC[C@]34C)C1CC[C@@H]2O (some centres undefined)
[out] 1.93
